# test: BHET released, HPLC; higher = more BHET released; extreme values may be limits of the assay
# protocol_conditions: PET substrate: cryPow; 60 °C; pH 6.5; 24 h
Each record here notes measured BHET released.
measurement_name: BHET released

[
  {
    "sequence_input": "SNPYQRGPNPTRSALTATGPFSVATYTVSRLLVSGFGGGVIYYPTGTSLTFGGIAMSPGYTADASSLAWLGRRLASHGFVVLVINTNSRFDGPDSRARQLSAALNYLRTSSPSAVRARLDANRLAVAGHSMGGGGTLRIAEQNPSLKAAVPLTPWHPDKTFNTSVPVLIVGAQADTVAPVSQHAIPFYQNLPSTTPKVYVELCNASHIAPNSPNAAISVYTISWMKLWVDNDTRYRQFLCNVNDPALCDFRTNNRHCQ [LCC-ICCG I6M]",
    "observed_measurement": "0 mM"
  },
  {
    "sequence_input": "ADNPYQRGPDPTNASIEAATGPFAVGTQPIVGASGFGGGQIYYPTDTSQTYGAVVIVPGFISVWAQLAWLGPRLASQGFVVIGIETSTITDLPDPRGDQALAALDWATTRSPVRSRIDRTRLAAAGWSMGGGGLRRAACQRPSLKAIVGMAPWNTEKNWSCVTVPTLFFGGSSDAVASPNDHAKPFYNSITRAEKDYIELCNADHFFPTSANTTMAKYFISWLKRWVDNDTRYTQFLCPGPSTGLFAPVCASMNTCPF [CaPETaseM9]",
    "observed_measurement": "0.00315 mM"
  },
  {
    "sequence_input": "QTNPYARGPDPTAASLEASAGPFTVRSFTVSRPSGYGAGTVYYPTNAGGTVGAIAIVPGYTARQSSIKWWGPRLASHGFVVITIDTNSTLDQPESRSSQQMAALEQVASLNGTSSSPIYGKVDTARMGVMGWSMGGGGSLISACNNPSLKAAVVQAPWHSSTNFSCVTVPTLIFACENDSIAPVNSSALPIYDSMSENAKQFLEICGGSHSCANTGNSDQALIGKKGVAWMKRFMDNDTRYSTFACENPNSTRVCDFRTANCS [Z1-PETase]",
    "observed_measurement": "0.00328 mM"
  }
]

---

# test: PET hydrolysis product formed (TPA+MHET+BHET, UV-Vis) per mg enzyme (mmol/mg enzyme); higher = more PET depolymerisation activity; extreme values may be limits of the assay
# protocol_conditions: PET substrate: cryPow; 60 °C; pH 9.5; 2 h
Each record here notes measured PET hydrolysis product formed.
measurement_name: PET hydrolysis product formed

[
  {
    "sequence_input": "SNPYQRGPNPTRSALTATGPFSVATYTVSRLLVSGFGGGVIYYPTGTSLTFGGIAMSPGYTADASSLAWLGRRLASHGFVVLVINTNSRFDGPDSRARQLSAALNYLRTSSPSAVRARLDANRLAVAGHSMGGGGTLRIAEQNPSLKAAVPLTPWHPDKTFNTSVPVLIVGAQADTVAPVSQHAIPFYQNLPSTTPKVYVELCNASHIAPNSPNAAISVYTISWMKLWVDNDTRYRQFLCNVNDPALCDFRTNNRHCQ [LCC-ICCG I6M]",
    "measurement_name": "PET hydrolysis product formed",
    "observed_measurement": 0.0174
  },
  {
    "sequence_input": "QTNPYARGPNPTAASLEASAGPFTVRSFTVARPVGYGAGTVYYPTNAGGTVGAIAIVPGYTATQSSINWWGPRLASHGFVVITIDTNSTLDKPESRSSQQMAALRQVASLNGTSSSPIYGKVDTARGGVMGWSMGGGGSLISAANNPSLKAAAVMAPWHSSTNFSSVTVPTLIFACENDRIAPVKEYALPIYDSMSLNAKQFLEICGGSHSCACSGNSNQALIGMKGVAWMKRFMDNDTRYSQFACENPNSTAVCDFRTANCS [HotPETase]",
    "measurement_name": "PET hydrolysis product formed",
    "observed_measurement": 0.0954
  },
  {
    "sequence_input": "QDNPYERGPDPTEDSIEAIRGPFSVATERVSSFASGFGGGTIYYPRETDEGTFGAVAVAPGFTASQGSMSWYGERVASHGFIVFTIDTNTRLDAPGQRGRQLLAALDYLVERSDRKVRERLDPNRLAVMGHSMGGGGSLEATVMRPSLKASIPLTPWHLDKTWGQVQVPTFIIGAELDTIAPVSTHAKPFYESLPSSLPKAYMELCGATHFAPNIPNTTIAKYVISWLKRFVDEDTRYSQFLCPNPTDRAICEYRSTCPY [Cut190*SS]",
    "measurement_name": "PET hydrolysis product formed",
    "observed_measurement": 0.0109
  }
]
